# System: Enterobacter cloacae B1966 clinical isolate
# TEST: Study 4 - MIC by broth micro-dilution (CLSI)
# Format: cell-based
# TEST CONDITIONS: Enterobacter cloacae
PROPERTY: MIC (µg/mL)
Report the value in µg/mL with no unit label.

Worked examples follow.
• CC(C)CC(N)C(=O)N[S+]([O-])c1ccc(F)c(Cl)c1 (stereo not shown) = 64
• CC(C)CC(N)C(=O)N[S+]([O-])c1ccc(F)cc1 (stereo not shown) = 16
• CC(C)CC(N)C(=O)N[S+]([O-])c1cc(F)cc(F)c1 (stereo not shown) = 64
• COc1cccc([S+]([O-])NC(=O)C(N)CC(C)C)c1 (stereo not shown) = 32
• CC(C)C[C@H](N)C(=O)N[S@+]([O-])c1cccc(Cl)c1 = 8
• C#Cc1cccc([S+]([O-])NC(=O)C(N)CC(C)C)c1 (stereo not shown) = 8
• CC(C)CC(N)C(=O)N[S+]([O-])c1cccc(Cl)c1 (stereo not shown) = 8

Now turn to the next compound.
INPUT: Requested read-out: MIC. Entry: CNc1cccc([S+]([O-])NC(=O)C(N)CC(C)C)c1 (stereo not shown)
OUTPUT: 32

---

Entries and their pKd values follow.
# TARGET SYSTEM: E. Coli LeuRS (Escherichia coli (strain K12))
# Sequence (P07813 whole entry): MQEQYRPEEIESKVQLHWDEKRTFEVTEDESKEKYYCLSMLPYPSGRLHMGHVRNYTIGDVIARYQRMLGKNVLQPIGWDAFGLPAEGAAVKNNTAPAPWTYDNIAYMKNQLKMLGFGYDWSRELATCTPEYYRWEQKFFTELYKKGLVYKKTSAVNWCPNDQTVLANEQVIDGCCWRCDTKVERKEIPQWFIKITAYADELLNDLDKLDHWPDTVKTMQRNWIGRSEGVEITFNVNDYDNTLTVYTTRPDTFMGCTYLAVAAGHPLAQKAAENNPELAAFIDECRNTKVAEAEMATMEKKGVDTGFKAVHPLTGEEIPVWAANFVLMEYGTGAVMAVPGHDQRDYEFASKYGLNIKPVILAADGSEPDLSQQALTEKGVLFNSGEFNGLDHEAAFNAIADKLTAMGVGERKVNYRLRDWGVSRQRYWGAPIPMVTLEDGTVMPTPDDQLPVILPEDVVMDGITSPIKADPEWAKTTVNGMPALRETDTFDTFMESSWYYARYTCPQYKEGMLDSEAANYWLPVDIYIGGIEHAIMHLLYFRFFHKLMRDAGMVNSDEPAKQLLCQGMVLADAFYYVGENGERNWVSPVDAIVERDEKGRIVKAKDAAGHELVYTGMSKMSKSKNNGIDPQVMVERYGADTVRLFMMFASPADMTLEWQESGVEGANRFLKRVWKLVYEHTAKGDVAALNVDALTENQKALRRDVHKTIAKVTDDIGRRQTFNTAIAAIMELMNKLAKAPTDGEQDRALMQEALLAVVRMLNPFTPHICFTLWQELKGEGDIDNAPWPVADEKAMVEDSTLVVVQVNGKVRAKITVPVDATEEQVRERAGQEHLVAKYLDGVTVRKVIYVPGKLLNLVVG
# TEST: Study 2 - Isothermal titration calorimetry (ITC)
# TEST CONDITIONS: 25° C., pH 7.5, mean ± SD
Reminder that pKd means the negative base-10 logarithm of the concentration expressed in mol/L.

Worked examples follow.
- CC(C)CC(N)C(=O)N[S+]([O-])c1cccc(Br)c1 (centres unmarked) [4.15]: 7.98
- CNc1cccc([S+]([O-])NC(=O)C(N)CC(C)C)c1 (centres unmarked) [4.22]: 7.46
- CC(C)CC(N)C(=O)N[S+]([O-])c1ccccc1F (centres unmarked) [4.31]: 8.17
- CCCC(N)C(=O)N[S+]([O-])c1ccccc1 (centres unmarked) [4.4]: 6.80
- COCc1cccc([S+]([O-])NC(=O)C(N)CC(C)C)c1 (centres unmarked) [4.23]: 7.76
- CC(C)CC(N)C(=O)N[S+]([O-])c1ccccc1Cl (centres unmarked) [4.32]: 8.34
- CC(C)CC(N)C(=O)N[S+]([O-])c1cccc(C(F)(F)F)c1 (centres unmarked) [4.18]: 8.22
- CC(C)CC(N)C(=O)N[S+]([O-])c1cccc2ccccc12 (centres unmarked) [4.39]: 7.89

INPUT: Requested read-out: pKd. Entry: CC(C)CC(N)C(=O)N[S+]([O-])c1ccc(F)cc1 (centres unmarked) [4.29]
OUTPUT: 8.04

INPUT: Requested read-out: pKd. Entry: CC(C)C[C@H](N)C(=O)N[S@+]([O-])c1ccccc1 (single isomer, unassigned) [R-4.1, 2,2,2-trifluoroacetate]
OUTPUT: 8.41

---

Entries and their log10(MIC) values follow.
# Test system: Klebsiella pneumoniae ATCC 700603
# TEST: Study 4 - MIC by broth micro-dilution (CLSI)
# Type: cell-based
# TEST CONDITIONS: Klebsiella pneumoniae, ATCC700603
Response schema: value (number) is log10 of MIC in units of mg/L.

Worked examples follow.
• CC(C)C[C@H](N)C(=O)N[S@+]([O-])c1cccc(Cl)c1 [R-4.12] = 1.51
• COc1cccc([S+]([O-])NC(=O)C(N)CC(C)C)c1 (stereo not drawn) [4.14] = 1.20
• CC(C)CC(N)C(=O)N[S+]([O-])c1ccccc1C#N (stereo not drawn) [4.30] = 1.51
• CC(C)CC(N)C(=O)N[S+]([O-])c1cccc(Br)c1 (stereo not drawn) [4.15] = 1.20
• CC(C)C[C@H](N)C(=O)N[S@+]([O-])c1ccccc1 (single isomer, unassigned) [R-4.1, 2,2,2-trifluoroacetate] = 0.90

INPUT: Requested read-out: log10(MIC). Entry: CC(C)CC(N)C(=O)N[S+]([O-])c1ccc(F)cc1 (stereo not drawn) [4.29]
OUTPUT: 1.81

INPUT: Requested read-out: log10(MIC). Entry: CC(C)CC(N)C(=O)N[S+]([O-])c1cccc(C#N)c1 (stereo not drawn) [4.19]
OUTPUT: 0.60
